These entries and their values trace back to ChEMBL document CHEMBL1201862.

Item-by-item account of GI50
system: SK-MEL-5; assay: NCI tumour cell line growth inhibition, 48 h
Calls of active or inactive are those of the source. No stated cut-off is given here; in the data, active = GI50 up to about 1.1 µM and inactive = higher.

Known results for molecules:
molecule | experimental system | GI50
Cc1cc(S(=O)(=O)NC2=NCCCN2)c(S)cc1Cl | SK-MEL-5 | 17.9 µM (inactive)
Fc1ccc(C(OCCN2CCC3CCC(C2)N3Cc2cc3ccccc3[nH]2)c2ccc(F)cc2)cc1 (configuration not stated) | SK-MEL-5 | 1.72 µM (inactive)
OCCCCOC(c1ccccc1)(c1ccccc1)c1ccccc1 | SK-MEL-5 | > 100 µM (inactive)

Please examine the following record next.
Please give the measured GI50 for this molecule: CC[C@@H]1CSC(/C=C/C2OC3OC(C)(C)OC3C3OC(C)(C)OC23)=N1 (some centres not stated)
6.67 µM (inactive)
